// data source = PubChem BioAssay AID1851

Target: Cytochrome P450 2C19 (Homo sapiens) (UniProt P33261)
Sequence (P33261 whole entry, looked up): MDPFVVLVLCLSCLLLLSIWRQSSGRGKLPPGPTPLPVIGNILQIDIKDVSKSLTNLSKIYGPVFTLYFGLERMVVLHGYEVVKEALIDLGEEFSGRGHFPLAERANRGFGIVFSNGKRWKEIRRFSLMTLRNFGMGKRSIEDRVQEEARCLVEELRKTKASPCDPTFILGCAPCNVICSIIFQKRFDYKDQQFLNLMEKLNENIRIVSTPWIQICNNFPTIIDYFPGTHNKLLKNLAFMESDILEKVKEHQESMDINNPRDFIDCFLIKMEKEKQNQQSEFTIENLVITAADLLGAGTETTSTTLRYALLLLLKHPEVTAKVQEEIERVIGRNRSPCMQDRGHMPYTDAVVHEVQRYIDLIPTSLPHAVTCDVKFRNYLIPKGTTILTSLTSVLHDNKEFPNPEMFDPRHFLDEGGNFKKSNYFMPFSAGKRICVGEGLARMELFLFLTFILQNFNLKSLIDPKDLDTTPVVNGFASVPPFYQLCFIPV
Assay: Cytochrome panel assay with activity outcomes
Details: recombinant CYP, pro-luciferin dealkylation, luminescence, p450-cyp2c19; series mostly up to 57.1 µM
Protocol: The P450 gene superfamily is involved in the metabolism and clearance of xenobiotics. This assay used various human CYP P450 isozymes to measure the dealkylation of various pro-luciferin substrates to luciferin. The luciferin is then measured by luminescence after the addition of a luciferase detection reagent. […] Inhibitors and some substrates limit the production of luciferin, and decrease measured luminescence. […] 8, Detection, 1 sec, ViewLux luminescent read […]
Hit rate of the full screen: of about 16,000 compounds, about 5,800 (36%) were called active. Another 23% or so got no clear call; they are omitted. Calls come from the whole dose curve; as a rule, active = well fitted curve in the direction sought with a large enough effect; inconclusive = small, poorly fitted or top-dose-only effect, or effect the other way; inactive = no such curve, though single readings can be large or run the other way. Some of the results follow.
Bench note: report the call from active, inactive

The examples below pair each entry with its known result.
compound | classLabel
Cn1c(SCc2nnc(-c3ccc(F)cc3)o2)nnc1C1COc2ccccc2O1 (stereo not given) | active
O=C(COc1ccc(/C=N/NC(=O)c2ccccc2)cc1)Nc1ccc([N+](=O)[O-])cc1 | inactive
Cc1ccnc(NC(=O)c2cccc(NC(=O)COc3ccccc3)c2)c1 | active
C[N+]1(CCOc2ccc([N+](=O)[O-])cc2)CCOCC1 | inactive

API: the following record is the query input.
What classification did C/C(CC(=O)Nc1cc(C)ccn1)=N\NC(=O)COc1cccc(C)c1 end up with in this test?
active

* * *

Biological target: Cytochrome P450 2C19 (Homo sapiens)
Assay: Cytochrome panel assay with activity outcomes
Conditions: recombinant CYP, pro-luciferin dealkylation, luminescence, p450-cyp2c19; series mostly up to 57.1 µM
Description: The P450 gene superfamily is involved in the metabolism and clearance of xenobiotics. This assay used various human CYP P450 isozymes to measure the dealkylation of various pro-luciferin substrates to luciferin. The luciferin is then measured by luminescence after the addition of a luciferase detection reagent. […] Inhibitors and some substrates limit the production of luciferin, and decrease measured luminescence. […] 8, Detection, 1 sec, ViewLux luminescent read […]
The campaign covered roughly 16,000 compounds. About 5,800 (36%) were called active. Not shown: some 23% with an inconclusive outcome. Calls follow the shape of the dose curve; as a rule, active = well fitted curve in the direction sought with a large enough effect; inconclusive = small, poorly fitted or top-dose-only effect, or effect the other way; inactive = no such curve, though single readings can be large or run the other way. The list shows a part of the results.
Bench note: report the call from 1 (active), 0 (inactive)

The examples below pair each entry with its known result.
molecule | assayTarget | classLabel
c1ccc(NCCSc2nc3ccccc3s2)cc1 | Cytochrome P450 2C19 (Homo sapiens) | 1
COc1ccccc1CN1CC2(CCN(C(=O)c3ccncc3)CC2)C1 | Cytochrome P450 2C19 (Homo sapiens) | 0
Oc1ccccc1C(Sc1nc2ccccc2s1)Sc1nc2ccccc2s1 | Cytochrome P450 2C19 (Homo sapiens) | 1
COc1ccc(C(N)=O)cc1NC(=O)c1cccc(F)c1 | Cytochrome P450 2C19 (Homo sapiens) | 0
COc1ccccc1CN1C(=O)c2ccncc2C1=O | Cytochrome P450 2C19 (Homo sapiens) | 1
CC1(C)S[C@@H]2[C@H](NC(=O)[C@H](C(=O)O)c3ccsc3)C(=O)N2[C@H]1C(=O)O | Cytochrome P450 2C19 (Homo sapiens) | 0
N[C@@H](Cc1c[nH]c2ccccc12)C(=O)O | Cytochrome P450 2C19 (Homo sapiens) | 0
c1ccc(-c2nc3ccccn3c2NCc2ccc3c(c2)OCO3)cc1 | Cytochrome P450 2C19 (Homo sapiens) | 1
NCCSc1nc2ccccc2s1 | Cytochrome P450 2C19 (Homo sapiens) | 1
CN(C)/C=N/c1ncc(C(=O)c2ccc3ccccc3c2)s1 | Cytochrome P450 2C19 (Homo sapiens) | 1

What classification did CC(C)CNC(=O)CCCc1c[nH]c2ccccc12 end up with in this test?
1

What classification did CCCc1nnc(SCC(=O)N2CCCC(C)C2)n1CC1CCCO1 (configuration not stated) end up with in this test?
0
